Sourced from PubChem BioAssay (NCI)

System: COLO 205 colon
Assay: NCI-60 one-dose screen, 48 h
Conditions: 10 µM unless noted
About 83,000 compounds went through this panel and 20% of them were active in at least one assay; those are over-represented in the sample as a whole. The source made the active and inactive calls. Rule for the calls: active = growth percent below 10; inactive = the rest.
Hi there, use one of these labels in your reply, thanks! y for active, n for inactive

Worked cases, answers included:
{"Chemical String": "Fc1ccc(-c2nc(Nc3ccc(-c4nc5ccccc5[nH]4)cc3)nc(N3CCOCC3)n2)cc1", "Label Value": "y"}
{"Chemical String": "Cc1nnc(Nc2ccc(NC(=O)Nc3ccc(Cl)cc3)cc2)c2ccccc12", "Label Value": "n"}
{"Chemical String": "Cc1c(NCc2nnc3n(Cc4ccccc4)c(=O)c4c5c(sc4n23)CCCC5)c(=O)n(-c2ccccc2)n1C", "Label Value": "n"}
{"Chemical String": "Cc1cc(N2CCOCC2)nc(N2CCOCC2)n1", "Label Value": "n"}

Here is another compound to look at.
Ask: I'd appreciate the recorded outcome for O=C1OCCCCCCCCCC#Cc2ccccc21 from this test.
Result: n

* * *

System: HOP-62 NSCLC
Assay: NCI-60 one-dose screen, 48 h
Details: 10 µM unless noted
The panel holds about 83,000 compounds, 20% with a hit somewhere; the sample as a whole holds those more often. Calls of active or inactive are those of the source. The calls were made as follows: active = growth percent below 10; inactive = the rest.
The reply should name one outcome from active, inactive

{"Compound": "CCCCCCC(C)(O)c1ccccc1 (configuration not stated)", "Label Value": "inactive"}
{"Compound": "Clc1cccc(Cc2cn3cc(-c4ccccc4)nc3s2)c1", "Label Value": "inactive"}
{"Compound": "Fc1ccc(-c2nnc(-c3c(-c4ccc(F)cc4)nc4ncccn34)o2)cc1", "Label Value": "inactive"}
{"Compound": "C=CCCCCCCCCC(=O)[O][Sn]([CH2]CCC)([CH2]CCC)[CH2]CCC", "Label Value": "active"}
{"Compound": "Cc1c(C(N)=O)sc2c1C(=O)N(Cc1ccccc1)C1=NN=C(c3ccc(Cl)cc3)CN12", "Label Value": "inactive"}
{"Compound": "CN(C)c1ccc2[nH]c3c(C(N)=O)cc(=O)c(=O)c=3oc2c1", "Label Value": "inactive"}

Ask: Could you check what this test reported for N#Cc1c2ccccc2c2n1-c1ccccc1OC(c1ccccc1)C2=O (configuration not stated) ?
Result: inactive

Ask: Repeat with Cc1nn(-c2ccc(Cl)cc2)c2nc3c(nc12)C(=O)c1ccccc1-3
Result: inactive

Ask: # iterate: COc1ccc(C2CC(c3ccc(OC)c(OC)c3)=NN2C(=O)c2cc(OC)c(OC)c(OC)c2)cc1 (configuration not stated)
Result: inactive

Ask: What do you get for O=C(N1CCC(CN=c2cc3n(-c4ccc(Cl)cc4)c4ccccc4nc-3cc2Nc2ccc(Cl)cc2)CC1)N1CC1 ?
Result: active

Ask: Now the compound COC(=O)[C@]1(C(C)C)N[C@H](c2cn(-c3ccccc3)nc2-c2ccccc2)[C@@H]2C(=O)N(c3ccc(Cl)cc3)C(=O)[C@@H]21
Result: inactive

Ask: # repeat for Cc1cc(O)c2c(c1)C[C@H]1[C@@H]3CC[C@H]4CC(=O)CC[C@]4(C)[C@H]3CC(=O)[C@]21C
Result: inactive

Ask: Also, O=C1/C(=C/c2ccc([N+](=O)[O-])o2)Oc2ccc(Br)cc21 please.
Result: inactive

Ask: Quick one: COc1ccc(OC)c(NC(=O)c2cc3oc4ccccc4c3cc2O)c1
Result: inactive

Ask: Note, next up: CN(C)c1nc(-c2ccco2)n2nc(-c3ccco3)cc2n1
Result: inactive

Ask: One more compound: COc1ccc(/C=C2\COc3ccc(O)c(O)c3C2=O)cc1OC
Result: inactive

Ask: // next record CC(=O)NC1(C(=O)O)CCCC1
Result: inactive

Ask: How about O=C(/C=C/c1ccccc1Cl)c1ccc(O)cc1 ?
Result: inactive

Ask: Proceed to CCCC[N+](CCCC)=c1ccc2nc3c(C)cc(N(CC)CC)cc3sc-2c1
Result: active

Ask: And the next one, COc1cc(/C=C2\COc3ccc(O)c(O)c3C2=O)cc(OC)c1 ?
Result: active

Ask: Consider next the compound O=C(/C=C/c1cccnc1)NCCCCC1CCCN(C(=O)c2ccccc2)C1 (configuration not stated) in the same way.
Result: inactive

Ask: Entry Cc1nn(-c2ccc(Br)cc2)c2nc3c(nc12)C(=O)C(=O)c1ccccc1-3 please
Result: inactive

* * *

Test system: HCC-2998 colon
Test: NCI-60 one-dose screen, 48 h (100 = growth as untreated, 0 = no growth, -100 = all killed)
Conditions: 10 µM unless noted
This is part of a sample that, as a whole, favours compounds with a hit. Of some 83,000 tested, about 20% had one in any assay.
Measurement Type: growth (%)
Please give a number only; it is taken to be in %.

Worked examples, 10 molecules total:
{"Molecule": "CC1=CC(=O)C(C(C)=Nc2ccccc2Cl)C(=O)O1 (stereo not given)", "Observed Result": 119}
{"Molecule": "COc1ccc2c(c1)nc(N)c1c3cc(C)c(C)cc3cn21", "Observed Result": 85.9}
{"Molecule": "CCOC(=O)c1ccccc1OC(=O)NNc1ccccc1", "Observed Result": 40}
{"Molecule": "O=C(CSc1nc2c(n1Nc1ccccc1)-c1ccccc1SC2)Nc1nc(-c2ccc(Cl)cc2)cs1", "Observed Result": 102}
{"Molecule": "O=c1ccn(C2OC(CO)C(O)C2F)c(=O)[nH]1 (stereo not given)", "Observed Result": 97.8}
{"Molecule": "Cn1[nH]cc(/C=N/C(N)=O)c1=O", "Observed Result": 103}
{"Molecule": "Clc1ccc([C@@H]2C[C@@H]3Cc4cc(Br)c5ccccc5c4N2O3)c(Cl)c1", "Observed Result": 87}
{"Molecule": "COc1ccc(-c2nnc(COc3ccc(NC(=O)Nc4cc(C(F)(F)F)cc(C(F)(F)F)c4)cc3F)o2)cc1", "Observed Result": 11.5}
{"Molecule": "C=CC1=C(C(=O)O)N2C(=O)[C@@H](NC(=O)/C(=N\\O)c3csc(N)n3)[C@H]2SC1 (stereo in doubt)", "Observed Result": 105}
{"Molecule": "CCCOc1ccc2c(c1)CC[C@@H]1[C@@H]2CC[C@@]2(C)[C@H]1CC[C@]2(C)O", "Observed Result": 74.7}

Ask: What growth appears in the records for this molecule with HCC-2998 colon? O=[N+]([O-])c1cnc(Sc2ccncn2)c([N+](=O)[O-])c1
Result: 102

Ask: Then what about the molecule O=C1Nc2ccc(F)cc2/C1=C/c1nc(-c2ccc(F)cc2)n2ccccc12 ?
Result: 108

Ask: Input Cc1cc(O)c2c(c1)C[C@H]1[C@@H]3CC[C@H]4CC(=O)CC[C@]4(C)[C@H]3CC(=O)[C@]21C
Result: 87.9

Ask: Another molecule: Cn1cc(-c2csc(-c3cn(C)c4ncccc34)n2)c2cccnc21
Result: 99.2

Ask: Now the molecule c1coc([C@@H]2C[C@@H]3Cc4ccc5ccccc5c4N2O3)c1
Result: 107

Ask: Queued: CSc1ncc2ncn(C3OC(CO)C(O)C3O)c2n1 (stereo not given)
Result: 124

Ask: Moving on to the next molecule: CN(C)c1cccc2c(S(=O)(=O)N[C@H]3CC[C@H]4[C@@H]5CCc6cc(O)ccc6[C@H]5CC[C@]34C)cccc12
Result: 60.6

Ask: Record: CN(CCOc1ccc(CC2SC(=O)NC2=O)cc1)c1ccccn1 (stereo not given)
Result: 112

Ask: Further, for O=C1C[C@@H]2/C(=C(O)\C=C\c3ccccc3)C(=O)C=C[C@@H]2O1 ?
Result: 99.6

Ask: One more molecule: O=C1Cc2cc(CCN3CCN(CCOCCO)CC3)c(Cl)cc2N1Cc1ccc(-c2ccccc2-c2nn[nH]n2)cc1
Result: 88.5

* * *

Tested on: HCT-15 colon
Assay: NCI-60 one-dose screen, 48 h (100 = growth as untreated, 0 = no growth, -100 = all killed)
Conditions: 10 µM unless noted
The panel holds about 83,000 compounds, 20% with a hit somewhere; the sample as a whole holds those more often.
Response field label takes Met when growth is strictly below 90% and Not met in all other cases.

Solved cases below.
{"Molecule": "Cc1ccc2c(c1)O/C(=C\\c1ccc([N+](=O)[O-])o1)C2=O", "Label Value": "Met"}
{"Molecule": "CNc1ccc(CSc2ccc(Cl)cc2)cc1", "Label Value": "Not met"}
{"Molecule": "CC/C(=C\\c1ccc(N(C)C)cc1)c1ccncc1", "Label Value": "Met"}
{"Molecule": "CC1=C(C(=O)Nc2ccccc2)C(c2ccc3c(c2)OCCO3)NC(=O)N1 (centres undefined)", "Label Value": "Not met"}
{"Molecule": "Cc1c(N(C)CS(=O)(=O)O)c(=O)n(-c2ccccc2)n1C", "Label Value": "Not met"}

Ask: Dear colleague, could you confirm whether growth of Cc1nnc(Nc2ccc(NC(=O)Nc3ccc(Cl)cc3)cc2)c2ccccc12 falls below 90%? Thanks.
Result: Met

Ask: Now the molecule CCC1(c2ccccc2)Oc2ccccc2-n2c(C#N)c3ccccc3c2C1=O (centres undefined)
Result: Not met

Ask: Can you check COC(=O)CC1=C(C)/C(=C/c2[nH]c(-c3ccc[nH]3)cc2OC)N=C1C next?
Result: Met

Ask: Also COc1ccc(/C=N/NC(=O)c2ccc(S(C)(=O)=O)cc2)cc1OC ?
Result: Not met

Ask: Do the same for O=C(O)C(=O)O please
Result: Not met
